Data origin: patent US8759372B2

# ASSAY NAME: In vivo pharmacokinetic study in humans with and without famotidine pretreatment
# CONDITION DESCRIPTION: human, plasma; humans, 150 mg Compound (I) oral, no pretreatment; (%)
# Description: An in vivo study was conducted comparing the pharmacokinetics of the free base Compound (I) in humans pretreated with 40 mg of famotidine with non-pretreated humans. Compound (I) in human EDTA plasma was analyzed using liquid-liquid extraction with uHPLC-MS/MS detection on a Triple Quad 5500 mass spectrometer. The method utilized stable isotope labeled [^13C2, D4]-Compound (I) as the internal standard. […]
OBSERVABLE: Cmax (ng/mL)
A number alone suffices; assume ng/mL.

Input: Bench note: what Cmax did N[C@@H]1c2cccnc2[C@H](OC(=O)N2CCC(n3c(=O)[nH]c4ncccc43)CC2)CC[C@H]1c1cccc(F)c1F [Compound (I)] show?
Output: 991

----------
# ASSAY NAME: In vivo pharmacokinetic study in humans with and without famotidine pretreatment
# CONDITION DESCRIPTION: human, plasma; humans, 150 mg Compound (I) oral, no pretreatment; (%)
OBSERVABLE: AUC(0-inf) (ng·h/mL)
Please respond with the number in ng·h/mL and leave the unit unwritten.

Input: Field request: AUC(0-inf) | item: N[C@@H]1c2cccnc2[C@H](OC(=O)N2CCC(n3c(=O)[nH]c4ncccc43)CC2)CC[C@H]1c1cccc(F)c1F [Compound (I)]
Output: 7200

----------
# ASSAY NAME: In vivo pharmacokinetic study in humans with and without famotidine pretreatment
# CONDITION DESCRIPTION: human, plasma; humans, 150 mg Compound (I) oral, no pretreatment; read-out: Tmax Median
OBSERVABLE: Tmax (h)
Give just the number in h; leave the unit off.

Input: Quick one: Tmax of N[C@@H]1c2cccnc2[C@H](OC(=O)N2CCC(n3c(=O)[nH]c4ncccc43)CC2)CC[C@H]1c1cccc(F)c1F [Compound (I)] ?
Output: 2.5

----------
# ASSAY NAME: In vivo pharmacokinetic study in humans with and without famotidine pretreatment
# CONDITION DESCRIPTION: human, plasma; humans, 150 mg Compound (I) oral with 40 mg Famotidine pretreatment; read-out: Tmax Median
OBSERVABLE: Tmax (h)
The reply should contain only the number, in h.

Input: Please report the recorded Tmax for N[C@@H]1c2cccnc2[C@H](OC(=O)N2CCC(n3c(=O)[nH]c4ncccc43)CC2)CC[C@H]1c1cccc(F)c1F .
Output: 3

----------
# ASSAY NAME: In vivo pharmacokinetic study in humans with and without famotidine pretreatment
# CONDITION DESCRIPTION: human, plasma; humans, 150 mg Compound (I) oral, no pretreatment; (%)
OBSERVABLE: half-life (h)
Report the value in h with no unit label.

Input: Find the recorded half-life belonging to N[C@@H]1c2cccnc2[C@H](OC(=O)N2CCC(n3c(=O)[nH]c4ncccc43)CC2)CC[C@H]1c1cccc(F)c1F [Compound (I)] and report it.
Output: 12
